- target: Cytochrome P450 2C19 (Homo sapiens)
- assay notes: blockers of cytochrome P450 2C19 activity – biochemical, luminescence, ADME assay, primary screen (AID 778);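 further: plate controls were negative control wells for no effect and 2.5 mM tranylcypromine positive control for full effect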
- experimental parameters: CYP2C19 Supersomes, luciferin-H EGE luminescence, 30 min; at 5 µM; active compounds read high
Among all 96,000 compounds or so, about 20,000 (21%) were called active. The list is a sample of the results.
Would you mind telling me the reported inhibition of each entry?
Express your answer in %, writing the number without its unit.

The recorded inhibition for Cn1c2c(c(=O)n(C)c1=O)CN(Cc1ccco1)CN2 is 0.4

The recorded inhibition for Cc1ccn2cc(-c3nonc3C)cc2c1 is 50.1

The recorded inhibition for CCCCC(=O)Nc1cc(C)c2c(=O)oc3ccccc3c2n1 is 16.3

The recorded inhibition for CCn1c(SCC(=O)Nc2cc(C)c(Cl)cc2OC)nnc1-c1ccco1 is 70.6

The recorded inhibition for O=C(CSc1nnc(-c2cccnc2)n1Cc1ccco1)c1ccc(Cl)cc1 is 27.8

The recorded inhibition for COC(=O)c1ccc(S(=O)(=O)N2CCC(c3nc4ccccc4o3)CC2)cc1 is 8.7
